All values here come from paper PMC5836133.

Biological target: GST-NbGlk1(82-244) (Nicotiana benthamiana)
Chain: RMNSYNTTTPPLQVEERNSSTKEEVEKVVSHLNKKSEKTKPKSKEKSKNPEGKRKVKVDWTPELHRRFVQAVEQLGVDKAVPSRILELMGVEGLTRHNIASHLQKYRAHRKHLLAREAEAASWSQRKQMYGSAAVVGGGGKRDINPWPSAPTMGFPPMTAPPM
Assay: protein-binding microarray; NbGlk1 is a Golden2-like transcription factor of Nicotiana benthamiana; high values mean tight binding
Conditions: protein: recombinant; tags: GST (pTH6838); dsDNA, one strand shown
In all, about 16,000 sequences were measured (“e-score”: median about -0.044, highest 2% from about 0.38 on). The sample as a whole holds a higher share of the highest values than the screen did.
Collected binding signal values appear next to each entry.

{"columns": ["sequence entry", "unit name", "binding signal"],
 "data": [
  ["ATGGATTC", "E-score", 0.425],
  ["ATCTAATG", "E-score", 0.243],
  ["ACGGATTG", "E-score", 0.277],
  ["ACGGATTA", "E-score", 0.312],
  ["ATGGATTG", "E-score", 0.21],
  ["AGAATCCC", "E-score", 0.433],
  ["ACAATCCG", "E-score", 0.334],
  ["AAAAATCC", "E-score", 0.437],
  ["ACGGATTC", "E-score", 0.405],
  ["AATATTAG", "E-score", 0.209],
  ["ATACAATC", "E-score", 0.274],
  ["AGAATCAT", "E-score", 0.359],
  ["ACGCAATC", "E-score", 0.48],
  ["AATATCAC", "E-score", 0.34],
  ["ACAATCCT", "E-score", 0.302],
  ["ATCTTTCA", "E-score", 0.247],
  ["AGAATCCT", "E-score", 0.439],
  ["AGCAGAAT", "E-score", 0.255],
  ["ATCCAATC", "E-score", 0.254],
  ["AGGCAATC", "E-score", 0.417],
  ["ACGCAATA", "E-score", 0.282],
  ["AAGCAATC", "E-score", 0.386]
]}
